tested on: Wolbachia pipientis; assay: Anti-Wolbachia Cell-Based Screen; assay type: functional; design: scale not given: in the data most compounds retested in dose-response had high values; settings: 5 µM
Out of some 48,000 compounds screened, about 13,000 (27%) showed an effect of 50% or more. The list shows a part of the results.
Some compounds, each annotated with its measured Percent Effect.

Sample records with Percent Effect:
CC(C)c1cc(NC2CCN(C(=O)N3CCCC3)CC2)ncn1
-23.56%
CC[C@@H](CO)NC(=O)c1cccc(CCC(C)(C)O)c1
0.6007%
CCS(=O)(=O)NCCNc1c(C#N)cnc2c(C)cc(F)cc12
-8.935%
CCC(O)CN(CC(=O)NC(=O)NC1CC1)c1ccccc1 (configuration not stated)
-6.258%
CSc1nnc(C2CCN(C(=O)N3CCCC3)CC2)n1C(C)C
114%

Now take the following compound into account.
Data request: Please supply the value of reported Percent Effect for the item O=C(Cc1cccc(F)c1)NCCNCc1cccc(O)c1
Data returned: -5.303%

Cited source: ChEMBL document CHEMBL3988442
